- Test system: Escherichia coli TOP10;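 note: peptides expressed intracellularly from a pBAD plasmid library in pooled LB shake-flask culture, induced with 0.3% L-arabinose, DNA abundance read by NGS, three biological replicates, DESeq2 with apeglm shrinkage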
- test_description: shrunken log2 fold change of peptide-encoding DNA abundance (4.5 h post-induction vs induction); higher = less antimicrobial activity (less host growth inhibition)
- test_conditions: time post-induction: 4.5 h; library: site-saturation at positions 5, 18, 19, 20
# label = t if shrunken log2 fold change >= -0.2 else f

{"seq_text": "RRIRARPPRLPRPRPRPACRPRP", "cat": "t"}
{"seq_text": "RRIRKRPPRLPRPRPRPRLTPRP", "cat": "t"}
{"seq_text": "RRIRWRPPRLPRPRPRPSPCPRP", "cat": "f"}
{"seq_text": "RRIRTRPPRLPRPRPRPTINPRP", "cat": "f"}
{"seq_text": "RRIRHRPPRLPRPRPRPILWPRP", "cat": "t"}
{"seq_text": "RRIRNRPPRLPRPRPRPKRNPRP", "cat": "t"}
{"seq_text": "RRIRERPPRLPRPRPRPSHMPRP", "cat": "f"}
{"seq_text": "RRIRGRPPRLPRPRPRPNHIPRP", "cat": "f"}
